# testTarget: T1, human MICB005 on cells (human)
# T1 construct: whole, on cells; also called CHO-MICB005; C1R-MICB005
# assayProcedure: flow cytometry, CHO-MICB005 cells
# maps each entry to its EC50
Value expressed in µg/mL; do not type the unit.

Below, each entry is followed by its recorded EC50 result.
binder	EC50, µg/mL
6E1.1.12 (antibody, human IgG1, kappa, V domains shown) VH: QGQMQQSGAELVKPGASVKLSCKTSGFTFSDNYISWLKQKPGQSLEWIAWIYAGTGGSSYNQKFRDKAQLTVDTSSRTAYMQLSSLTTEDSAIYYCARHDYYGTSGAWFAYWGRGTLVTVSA VL: DVLMTQTPLSLPVSLGDQASISCRSSQHIVHSNENTYLEWYLQKPGQSPKLLIYKVSNRFSGVPDRFSGSGSGTDFTLKISRVEAEDLGVYYCFQGSHVPWTFGGGTKVEIKR	0.184
#39 (antibody, human IgG1, V domains shown, also called PL114G03; Hit ID 39) VH: QVQLQQSGAELVRPGTSVKVSCKASGYAFTDYLIEWVKQRPGQGLEWIGGINPGSGSTNYNEKFKGKAILTADKSSSTAYMQLSSLTSDDSAVYFCARLDGNYVGYWGQGTTLTVSS VL: DILLTQSPASLSASVGETVTITCRASGNIHNYLAWYQQKQGKSPQLLVYHAKTLADGVPSRFSGSGSGTQYSLKINSLQPEDFGSYYCQHFWSTPWTFGGGTKLEIK	1.4

Now examine the next entry.
Query string: Name the recorded EC50 for #31 (antibody, human IgG1, V domains shown, also called PL116D11; Hit ID 31) VH: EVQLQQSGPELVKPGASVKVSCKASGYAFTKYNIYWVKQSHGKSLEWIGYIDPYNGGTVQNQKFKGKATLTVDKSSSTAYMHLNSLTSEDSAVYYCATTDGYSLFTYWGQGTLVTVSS VL: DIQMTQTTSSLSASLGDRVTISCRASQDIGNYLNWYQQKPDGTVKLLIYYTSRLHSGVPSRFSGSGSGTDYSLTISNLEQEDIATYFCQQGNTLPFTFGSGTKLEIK .
Result string: 0.21
